Test system: HT-1080
PROTOCOL: cells
DETAILS: Homo sapiens, HT-1080, 72 h
What log10 of IC50 was measured for each of the following?
For clarity, the numbers are log10 values of IC50 expressed in µM.

# COMPOUND, ASSAY_ENDPOINT, TEST_RESULT
data = [
    ("COCCOc1cc(Cl)cc(N2CCN(c3cnnc4c(Cl)cccc34)CC2)c1", "log10 of IC50", 0.23),
    ("OCCOc1cc(Cl)cc(N2CCN(c3cnnc4c(Cl)cccc34)CC2)c1", "log10 of IC50", -0.30),
    ("COC(=O)CCOc1cc(Cl)cc(N2CCN(c3cnnc4c(Cl)cccc34)CC2)c1", "log10 of IC50", -0.01),
    ("COc1cc(OC)cc(N2CCN(c3cnnc4c(Cl)cccc34)CC2)c1", "log10 of IC50", -1.43),
    ("Clc1cccc(N2C[C@H]3CC[C@@H](C2)N3c2cnnc3c(Cl)cccc23)c1", "log10 of IC50", 0.75),
    ("Oc1cc(Cl)cc(N2CCN(c3cnnc4c(Cl)cccc34)CC2)c1", "log10 of IC50", -1.07),
    ("NCCOc1cc(Cl)cc(N2CCN(c3cnnc4c(Cl)cccc34)CC2)c1", "log10 of IC50", 0.59),
    ("N#Cc1cc(Cl)cc(N2CCN(c3cnnc4c(Cl)cccc34)CC2)c1", "log10 of IC50", -0.42),
]

Provide each entry's log10 of IC50 from the list below.
1. COc1cccc(N2CCN(c3cnnc4c(Cl)cccc34)CC2)c1
2. Clc1cccc(N2CCN(c3cnnc4c(Cl)cccc34)CC2)c1
3. O=C(O)CCOc1cc(Cl)cc(N2CCN(c3cnnc4c(Cl)cccc34)CC2)c1
4. Nc1cc(Cl)cc(N2CCN(c3cnnc4c(Cl)cccc34)CC2)c1
5. Clc1cccc(N2CC3CC2CN3c2cnnc3c(Cl)cccc23)c1 (centres undefined)

Found:
-0.22
0.19
0.18
-0.19
0.51
